Experimental system: T1, neuropeptide Y receptor Y5 (UniProt Q15761 1-445)
T1 construct: receptor of NPY, Y5; source: U2OS cells stably expressing the receptor, bought: Thermo Fisher Scientific; on cells
T1 sequence (looked up): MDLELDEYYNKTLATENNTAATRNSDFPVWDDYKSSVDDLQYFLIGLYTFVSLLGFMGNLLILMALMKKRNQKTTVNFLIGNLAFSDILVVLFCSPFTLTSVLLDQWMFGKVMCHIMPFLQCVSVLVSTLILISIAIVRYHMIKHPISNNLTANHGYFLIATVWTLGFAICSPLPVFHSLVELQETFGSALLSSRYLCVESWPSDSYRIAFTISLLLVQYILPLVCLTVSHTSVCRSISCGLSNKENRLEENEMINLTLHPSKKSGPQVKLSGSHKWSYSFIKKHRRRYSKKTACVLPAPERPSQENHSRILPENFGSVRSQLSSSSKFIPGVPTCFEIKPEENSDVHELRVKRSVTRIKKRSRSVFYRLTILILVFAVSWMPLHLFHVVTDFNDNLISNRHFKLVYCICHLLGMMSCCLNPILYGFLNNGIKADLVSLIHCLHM
Run description: radioligand binding; competition with 0.1 nM [^125I]-PYY on U2OS cells with Y1, Y2 or Y5; 25 mM HEPES, 120 mM NaCl, 5 mM MgCl2, 4.7 mM KCl, 1 mM CaCl2, 0.5% BSA, 2 g/L glucose; peptides 10^-12 to 10^-5 M; 60 min at RT; Ki by the Cheng-Prusoff equation
Experimental context: one partner purified
Starred links: 1 amine or outer side, 2 acyl side, 3 side chain; linkers in the order of their positions; H or OH if unused. Groups on a side chain read outwards from the residue. No end group written: not given here. *: point of attachment. γGlu = O=C(O)[C@H](CCC(=O)[*:2])N[*:1]; Palmitoyl = CCCCCCCCCCCCCCCC(=O)*
Measured endpoint: pKi
Answers are plain numbers, as −log10 of the molar value.

Prompt: Sample SRTHRHSMEIK([γGlu-Palmitoyl])TPDINPAWYASRGIRPVGRF-NH2 (analog of human PrRP31 with Arg11 replaced by Lys11 that carries palmitic acid through a gamma-Glu linker; numbers count on: the peptide PrRP31; source: synthetic peptide, palmitoylated on resin, purified (HPLC, purity greater than 95%)) [Palm^11-PrRP31] — what was its pKi?
Completion: 6.44
